Target: human Siglec-7 on primary human monocyte-derived dendritic cells (human, UniProt Q9Y286 19-467)
Sequence (Q9Y286 19-467): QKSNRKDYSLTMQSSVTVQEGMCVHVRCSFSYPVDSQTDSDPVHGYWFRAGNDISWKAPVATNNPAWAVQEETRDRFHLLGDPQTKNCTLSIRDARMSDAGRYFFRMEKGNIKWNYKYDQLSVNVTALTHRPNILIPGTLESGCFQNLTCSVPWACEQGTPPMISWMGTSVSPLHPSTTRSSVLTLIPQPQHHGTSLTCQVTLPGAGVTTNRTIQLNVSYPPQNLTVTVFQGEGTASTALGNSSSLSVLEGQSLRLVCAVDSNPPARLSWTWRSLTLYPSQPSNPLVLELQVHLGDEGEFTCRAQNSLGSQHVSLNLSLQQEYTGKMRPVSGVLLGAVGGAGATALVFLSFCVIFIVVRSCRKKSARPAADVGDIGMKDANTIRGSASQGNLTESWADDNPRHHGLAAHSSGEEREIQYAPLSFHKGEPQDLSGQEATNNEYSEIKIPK
Experiment: cell-based or functional assay
measurement.type: Maximal downregulation (% Siglec-7 remaining) (%)
The answer is to be given in %; state only the numeric part.

binder	readout.unit	meas.value
S7AB-H8.7 (antibody, V domains shown) VH: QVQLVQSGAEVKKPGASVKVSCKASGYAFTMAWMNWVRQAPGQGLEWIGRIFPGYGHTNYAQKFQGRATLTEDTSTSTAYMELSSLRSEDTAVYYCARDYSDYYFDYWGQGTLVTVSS VL: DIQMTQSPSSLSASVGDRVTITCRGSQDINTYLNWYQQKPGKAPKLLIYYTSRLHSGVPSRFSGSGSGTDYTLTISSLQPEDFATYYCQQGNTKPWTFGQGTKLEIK	%	2.1

Now for a further binder.
Ask: What value of Maximal downregulation (% Siglec-7 remaining) has been reported for the following binder? S7AB-H8.38 (antibody, V domains shown) VH: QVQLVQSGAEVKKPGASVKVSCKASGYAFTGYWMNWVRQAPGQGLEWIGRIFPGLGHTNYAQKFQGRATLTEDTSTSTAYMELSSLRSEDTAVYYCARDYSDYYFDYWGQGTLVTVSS VL: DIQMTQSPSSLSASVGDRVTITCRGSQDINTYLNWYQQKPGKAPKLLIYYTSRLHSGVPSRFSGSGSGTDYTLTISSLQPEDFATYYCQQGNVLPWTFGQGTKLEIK
Result: 17.1
